Entry source: patent US12569565B2

Tested on: influenza A/WSN/1933 (H1N1)
experiment: CPE assay at different multiplicities of infection (Example 94)
Format: cell-based, influenza A virus
experimentalContext: MOI 0.001; read-out: EC50 H1N1 A/WSN/1933 (CPE in MDCK cells)
experimentalReadout: pEC50
Field pEC50 (float): negative decimal logarithm of the concentration in molar.

CC(=O)N[C@H]1[C@H]([C@H](O)[C@H](O)CO)OC(C(=O)O)=C[C@@H]1N=C(N)N :: 6.86

Here is another compound to look at.
Test item CCOC(=O)C1=C[C@@H](OC(CC)CC)[C@H](NC(C)=O)[C@@H](N)C1 ; influenza A/WSN/1933 (H1N1); reported pEC50 was 6.28
